tested on: ATF4; assay: ATF4 expression inhibition assay (ATF4 5′UTR luciferase reporter, thapsigargin-stressed); assay type: cell-based; details: Homo sapiens, HEK-293T, 3 h, read-out: ATF4 inhibition
Reported IC50 values are given for each entry in this list.

Below, 2 molecules whose answers are already recorded.
- O=C(COc1ccc(Cl)c(F)c1)N[C@H]1CC[C@H](C(=O)Nc2nc3cc(Cl)ccc3o2)CC1 [Compound 13]: 10 to 100 nM
- O=C(C[C@H]1CC[C@H](NC(=O)COc2ccc(Cl)c(F)c2)CC1)Nc1ccc2cc(Cl)ccc2n1 [Compound 21]: 100 to 1000 nM

# input Look at this molecule and give its reported IC50. O=C(NN1CCC(C(=O)Nc2nc3cc(Cl)ccc3o2)CC1)c1ccc2cc(Cl)ccc2n1 [Compound 100]
# output 10 to 100 nM

# input Please report the recorded IC50 for O=C(CO[C@H]1C[C@@H](OC(F)(F)F)C1)N[C@H]1CC[C@H](C(=O)Nc2nc3cc(Cl)ccc3o2)CC1 [Compound 101] .
# output 100 to 1000 nM

# input Which IC50 is listed for O=C(N[C@H]1CC[C@H](C(=O)Nc2nc3cc(Cl)ccc3o2)CC1)c1ccc2cc(Cl)ccc2n1 [Compound 99] ?
# output 10 to 100 nM

# input # query: IC50 of entry O=C(COc1ccc(Cl)c(F)c1)NN1CCC(C(=O)Nc2nc3cc(Cl)ccc3o2)CC1 [Compound 97]
# output 10 to 100 nM

# input What value of IC50 has been reported for the following molecule? O=C(COc1ccc(Cl)cc1)N[C@H]1CC[C@H](C(=O)Nc2ccc3cc(Cl)ccc3n2)CC1 [Compound 1]
# output < 10 nM

The origin of these recorded values is patent US20230042881A1.
